Below is a list of entries, each paired with its recorded Ki value.
EXPERIMENTAL_TARGET: recombinant human ALK5 (TGF-βR1) protein (Homo sapiens, UniProt P36897)
Sequence (P36897 34-503): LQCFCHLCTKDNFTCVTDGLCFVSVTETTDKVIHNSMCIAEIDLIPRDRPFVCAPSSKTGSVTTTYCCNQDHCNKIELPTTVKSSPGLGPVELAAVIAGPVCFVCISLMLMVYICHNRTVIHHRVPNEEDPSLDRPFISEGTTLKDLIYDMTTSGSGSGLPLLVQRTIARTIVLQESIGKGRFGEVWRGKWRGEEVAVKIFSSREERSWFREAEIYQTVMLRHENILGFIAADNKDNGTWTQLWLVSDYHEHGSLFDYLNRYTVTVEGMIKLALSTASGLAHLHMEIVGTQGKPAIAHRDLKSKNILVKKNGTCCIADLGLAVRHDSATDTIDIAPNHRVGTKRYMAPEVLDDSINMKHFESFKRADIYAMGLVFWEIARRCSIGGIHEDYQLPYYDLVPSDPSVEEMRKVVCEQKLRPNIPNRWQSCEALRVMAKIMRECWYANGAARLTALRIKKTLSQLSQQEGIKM
PROCEDURE_SUMMARY: Biochemical ALK5 (TGF-βR1) assay to measure pKi (LANCE Ultra ULight kinase assay)
CONDITION_PARAMETERS: apparent pKi, converted from pIC50 by Cheng-Prusoff

Looking for the measured Ki of COCCOc1ccc(Nc2nccc(Nc3ccnc(-c4cccc(C)n4)n3)n2)cc1 [Compound 250] , can you help? 398 to 3160 pM

Need Ki, item Cc1cccc(-c2nccc(Nc3ccnc(Nc4ccc(N5CCCC(C(=O)O[C@@H]6CCNC6)C5)cc4)n3)n2)n1 (stereo partly shown) [Compound 479] 39.8 to 316 pM

Please report the recorded Ki for Cc1cccc(-c2nccc(Nc3ccnc(Nc4ccc(CN5CCC(C(=O)O[C@H]6CCN(C)C6)CC5)cc4)n3)n2)n1 [Compound 297] . 39.8 to 316 pM

I'd like to know its Ki. The compound in question is Cc1cccc(-c2nccc(Nc3ccnc(Nc4nc(CN5CCC[C@@H](C(=O)O[C@@H]6CCN(C)C6)C5)cs4)n3)n2)n1 [Compound 460] 39.8 to 316 pM

Give its Ki value. Item: Cc1cccc(-c2nccc(Nc3ccnc(Nc4ccc(Cl)c(CO)c4)n3)n2)n1 [Compound 295] 39.8 to 316 pM

New cases:
Reported Ki, compound Cc1cccc(-c2nccc(Nc3ccnc(Nc4ccc(C(=O)N5CCNCC5)cc4)n3)n2)n1 [Compound 290] : ____ 39.8 to 316 pM

Param item = Cc1cccc(-c2nccc(Nc3ccnc(Nc4cncc(C(=O)OCC5CCNCC5)c4)n3)n2)n1 [Compound 606] ; retrieve measured Ki. 398 to 3160 pM

* * *

EXPERIMENTAL_TARGET: recombinant human ALK5 (TGF-βR1) protein (Homo sapiens)
PROCEDURE_SUMMARY: Biochemical ALK5 (TGF-βR1) assay to measure pKi (LANCE Ultra ULight kinase assay)
CONDITION_PARAMETERS: apparent pKi, converted from pIC50 by Cheng-Prusoff
pKi: −log10 of the molar value.
METRIC: pKi

Solved entries:
Recall the recorded pKi for Cc1cccc(-c2nccc(Nc3ccnc(Nc4cncc(C(=O)OC[C@@H]5CCCNC5)c4)n3)n2)n1 with recombinant human ALK5 (TGF-βR1) protein (Homo sapiens) and state it. 8.50 to 9.40

For the record Cc1cccc(-c2nccc(Nc3ccnc(Nc4ccc(N)c(C)c4)n3)n2)n1 , what value of pKi is listed for recombinant human ALK5 (TGF-βR1) protein (Homo sapiens)? 8.50 to 9.40

pKi of Cc1cccc(-c2nccc(Nc3ccnc(Nc4ccc(CN5CC6(CCOC6)C5)cc4)n3)n2)n1 on recombinant human ALK5 (TGF-βR1) protein (Homo sapiens)? 9.50 to 10.40

Form field - read-out: pKi; system: recombinant human ALK5 (TGF-βR1) protein (Homo sapiens); submitted item: Cc1cccc(-c2nccc(Nc3ccnc(Nc4ccc(N5CCN(C(CCO)C(=O)O)CC5)cc4)n3)n2)n1 (centres unmarked) 9.50 to 10.40

Lookup: pKi / recombinant human ALK5 (TGF-βR1) protein (Homo sapiens) / Cc1cccc(-c2nccc(Nc3ccnc(Nc4csc(C(=O)O[C@@H]5CCNC5)c4)n3)n2)n1 9.50 to 10.40

Identify the measured pKi of Cc1cccc(-c2nccc(Nc3ccnc(Nc4ccc(NCC5(CO)CNC5)cc4)n3)n2)n1 for recombinant human ALK5 (TGF-βR1) protein (Homo sapiens). 8.50 to 9.40

Hi! What's the reported pKi for Cc1cccc(-c2nccc(Nc3ccnc(Nc4csc(C(=O)O)n4)n3)n2)n1 on recombinant human ALK5 (TGF-βR1) protein (Homo sapiens)? 7.50 to 8.40

Continue with the molecule presented below.
Request body: readout pKi, system recombinant human ALK5 (TGF-βR1) protein (Homo sapiens), query Cc1cccc(-c2nccc(Nc3ccnc(Nc4ccc(N5CCNCC5CC(=O)OCC(C)C)cc4)n3)n2)n1 (centres unmarked) . Return the value. 9.50 to 10.40
